Data origin: ChEMBL document CHEMBL2321876

Experiment: Displacement of Fl-Sal-AMS from Mycobacterium tuberculosis MbtA expressed in Escherichia coli after 30 mins by fluorescence polarization assay
In plain terms, low Kd, meaning strictly below 5 µM, gives 1, and everything else gives -1.

I wonder whether COc1cc(-c2cc(C(=O)O)c3cnn(Cc4ccncc4)c3n2)ccc1C(=O)O has Kd below 5 µM. Can you tell?
-1

Okay, and Cc1csc(-c2cc(C(=O)O)c3cnn(Cc4ccncc4)c3n2)c1 ?
1

Okay, and O=C(O)c1ccc(-c2cc(C(=O)O)c3cnn(Cc4ccncc4)c3n2)cc1 ?
-1

----------
Test: Displacement of Fl-Sal-AMS from Mycobacterium tuberculosis MbtA expressed in Escherichia coli after 30 mins by fluorescence polarization assay
readout type: Kd (µM)
Give bare numbers, in µM.

Some solved entries appear below for comparison.
O=C(O)c1cc(-c2ccc(-c3ccc(Br)cc3)cc2)nc2c1cnn2Cc1ccncc1 19.7
O=C(O)c1cc(-c2cccc(O)c2)nc2c1cnn2Cc1ccncc1 7.67
Cc1ccsc1-c1cc(C(=O)O)c2cnn(Cc3ccncc3)c2n1 19.2

For each of the items listed, what is its Kd?
1. O=C(O)c1cc(-c2cccc3cccnc23)nc2c1cnn2Cc1ccncc1
2. O=C(O)c1cc(-c2ccc3[nH]ccc3c2)nc2c1cnn2Cc1ccncc1
3. O=C(O)c1cc(-c2ccc(F)cc2F)nc2c1cnn2Cc1ccncc1
4. O=C(O)c1cc(N2CCOCC2)nc2c1cnn2Cc1ccncc1
5. O=C(O)c1cc(C#Cc2ccccc2)nc2c1cnn2Cc1ccncc1
6. O=C(O)c1cc(-c2ccccc2)cc2nn(Cc3ccncc3)cc12
7. COc1ccc(COc2ccc(-c3cc(C(=O)O)c4cnn(Cc5ccncc5)c4n3)cc2)cc1

22.5
2.9
8
29.1
3
58
5.8

For each of the items listed, what is its Kd?
1. CC(=O)Nc1ccc(-c2cc(C(=O)O)c3cnn(Cc4ccncc4)c3n2)cc1
2. O=C(O)c1cc(-c2ccc(O)cc2)nc2c1cnn2Cc1ccncc1
3. O=C(O)c1cc(-c2cccs2)nc2c1cnn2Cc1ccncc1
4. O=C(O)c1cc(-c2ccc(OCc3ccccc3)cc2)nc2c1cnn2Cc1ccncc1

4.2
3.7
6.68
5.4

----------
Test system: Acinetobacter baumannii
Test: Antibacterial activity against Acinetobacter baumannii ATCC 19606 using iron-deficient M9 minimal media after 15 hrs by broth microdilution assay
Assay type: functional, organism-based
Conditions: ATCC 19606 = CIP 70.34 = JCM 6841
Activity calls are given as the source filed them. No rule for the calls is given here.
readout type: Activity

Some solved entries appear below for comparison.
NC(=O)c1ccc(-c2cc(C(=O)O)c3cnn(Cc4ccncc4)c3n2)cc1 inactive
Cc1ccccc1-c1cc(C(=O)O)c2cnn(Cc3ccncc3)c2n1 inactive
CN(C)c1ccc(-c2cc(C(=O)O)c3cnn(Cc4ccncc4)c3n2)cc1 inactive
CCCCCCCCCCCCCCCCOc1ccc(-c2cc(C(=O)O)c3cnn(Cc4ccncc4)c3n2)cc1 inactive
O=C(O)c1cc(-c2cccc(Cl)c2)nc2c1cnn2Cc1ccncc1 inactive
COc1ccc(Cn2ncc3c(C(=O)O)cc(-c4ccccc4)nc32)cc1 inactive

For each of the items listed, what is its Activity?
1. O=C(O)c1cc(-c2ccc(O)cc2)nc2c1cnn2Cc1ccncc1
2. CN(C)C(=O)c1cc(-c2ccccc2)nc2c1cnn2Cc1ccncc1
3. O=C(O)c1cc(-c2ccc(F)cc2)nc2c1cnn2Cc1ccncc1
4. O=C(O)c1cc(-c2cncnc2)nc2c1cnn2Cc1ccncc1
5. Cc1cccc(-c2cc(C(=O)O)c3cnn(Cc4ccncc4)c3n2)c1
6. CCn1ncc2c(C(=O)O)cc(-c3ccccc3)nc21

1. inactive
2. inactive
3. inactive
4. inactive
5. inactive
6. inactive
